- Tested on: Nalm-6 (B-lineage ALL)
- ASSAY_NOTES: MTT cytotoxicity assay, Nalm-6
- Type: cell-based
- ASSAY_CONDITIONS: Homo sapiens, 24-36 hours at 37° C., 0.1 to 250 μM
MEASURED_METRIC: IC50 (µM)
# output: bare number, implied unit µM

>  <MOLECULE>
CCCCCCCCCCCCSC[C@H](NC(=O)C(F)(F)F)C(=O)CCl [HI-490]

>  <READOUT_UNIT>
µM

>  <IC50>
32.6

$$$$
>  <MOLECULE>
C=CCSC[C@H](NC(C)=O)C(=O)CCl [HI-419]

>  <READOUT_UNIT>
µM

>  <IC50>
4.3

$$$$
>  <MOLECULE>
CCCCCCCCCCCCSC[C@@H](C=O)NC(C)=O [HI-274, N-Ac-S-dodecyl-Cys-H]

>  <READOUT_UNIT>
µM

>  <IC50>
12.6

$$$$

Ask: Determine its reported IC50: CCCCCCCCCCCCSC[C@H](NC(C)=O)C(=O)CSc1c(F)c(F)c(F)c(F)c1F [HI-399]
Result: 91.2

Ask: Determine its reported IC50: CCCCCCCCCCCCSC[C@H](NC(C)=O)C(=O)CCl [HI-131, N-Ac-S-dodecyl-Cys chloromethyl ketone]
Result: 2

Ask: Determine its reported IC50: CC(=O)N[C@@H](CSC(=O)OCc1ccccc1)C(=O)CCl [HI-389]
Result: 1.2

---

- Test system: Molt-3 (T-lineage ALL)
- ASSAY_NOTES: MTT cytotoxicity assay, Molt-3
- Format: cell-based, human
- ASSAY_CONDITIONS: MTT, 24-36 hours at 37° C., 0.1 to 250 μM
MEASURED_METRIC: IC50 (µM)
# output: bare number, implied unit µM

Ask: Determine its reported IC50: CCCCCCCCCCCCSC[C@H](NC(C)=O)C(=O)CCl
Result: 2.3

---

- System: Nalm-6 (B-lineage ALL)
- ASSAY_NOTES: MTT cytotoxicity assay, Nalm-6
- Format: cell-based
- ASSAY_CONDITIONS: Homo sapiens, 24-36 hours at 37° C., 0.1 to 250 μM
// boundary case: IC50 equal to 20 µM maps to False; strictly smaller maps to True

>  <COMPOUND>
CC(=O)N[C@@H](CSCc1ccc2ccccc2c1)C(=O)CCl

>  <LABEL_VALUE>
True

$$$$
>  <COMPOUND>
CC(=O)N[C@@H](CSC/C=C(\C)CC/C=C(\C)CCC=C(C)C)C(=O)C=[N+]=[N-]

>  <LABEL_VALUE>
False

$$$$
>  <COMPOUND>
CCCCCCCCCCCCSC[C@H](NC(C)=O)C(=O)C=[N+]=[N-]

>  <LABEL_VALUE>
True

$$$$

Ask: Please state whether IC50 is below 20 µM for CCCCCCCCCCCCSC[C@H](NC(=O)OCC1c2ccccc2-c2ccccc21)C(=O)CCl
Result: False

Ask: Please state whether IC50 is below 20 µM for CCCCCCCCCCCCSC[C@H](NC(C)=O)C(=O)CSCCC(=O)O
Result: False

Ask: Please state whether IC50 is below 20 µM for COc1ccc(CSC[C@H](NC(C)=O)C(=O)CCl)cc1
Result: False

Ask: Please state whether IC50 is below 20 µM for CC(C)=CCC/C(C)=C/CC/C(C)=C/CSC[C@H](NC(=O)OC(C)(C)C)C(=O)C=[N+]=[N-]
Result: False

Ask: Please state whether IC50 is below 20 µM for CC(=O)N[C@@H](CSC/C=C(\C)CCC=C(C)C)C(=O)C=[N+]=[N-]
Result: False

Ask: Please state whether IC50 is below 20 µM for CC(=O)N[C@@H](CSC(C)(C)C)C(=O)CCl
Result: False

Ask: Please state whether IC50 is below 20 µM for CC(C)=CCC/C(C)=C/CC/C(C)=C/CSCCC(=O)CCl
Result: False

---

- Test system: Nalm-6 (B-lineage ALL)
- ASSAY_NOTES: MTT cytotoxicity assay, Nalm-6
- Assay type: cell-based
- ASSAY_CONDITIONS: Homo sapiens, 24-36 hours at 37° C., 0.1 to 250 μM
- Method: Cytotoxicity of various compounds against tumor cells was performed using the MTT (3-[4,5-[…]]-2,5-diphenyl tetrazolium bromide) assay (Boehringer Mannheim Corp., Indianapolis, Ind.). […] The cells were incubated with the various compounds for 24-36 hours at 37° C. in a humidified 5% CO2 atmosphere. […] The absorbence of each well was measured in a microplate reader (Labsystems) at 540 nm and a reference wavelength of 690 um. […] The percent survival was calculated using the formula: [formula] […]
Counter-ions that a name gives are not always drawn.
MEASURED_METRIC: pIC50
Reminder that pIC50 is minus the log10 of a molar concentration.

Ask: Give pIC50 for this entry on Nalm-6 (B-lineage ALL): CCCCCCCCCCCCOC[C@H](NC(=O)OC(C)(C)C)C(=O)CCl
Result: 4.19

Ask: Give pIC50 for this entry on Nalm-6 (B-lineage ALL): CCCCCCCCCCCCSC[C@H](NC(=O)OCC)C(=O)CCl
Result: 4.11

Ask: Give pIC50 for this entry on Nalm-6 (B-lineage ALL): CC(=O)N[C@@H](CSC(c1ccccc1)(c1ccccc1)c1ccccc1)C(=O)CCl
Result: 5.00

Ask: Give pIC50 for this entry on Nalm-6 (B-lineage ALL): CC(C)=CCC/C(C)=C/CC/C(C)=C/CSCCC(=O)C=[N+]=[N-]
Result: 4.27

Ask: Give pIC50 for this entry on Nalm-6 (B-lineage ALL): CCCCCCCCCCCCOC[C@H](NC(C)=O)C(=O)CCl
Result: 5.42

Ask: Give pIC50 for this entry on Nalm-6 (B-lineage ALL): CCCCCCCCCCCCSC[C@H](NC(=O)c1cccc(N(C)C)c1)C(=O)CCl
Result: 4.02

Ask: Give pIC50 for this entry on Nalm-6 (B-lineage ALL): CCCCCCCCCCCCSC[C@H](N)C(=O)CCl [HI-252, hydrochloride]
Result: 4.75

---

- Tested on: Nalm-6 (B-lineage ALL)
- ASSAY_NOTES: MTT cytotoxicity assay, Nalm-6
- Assay type: cell-based
- ASSAY_CONDITIONS: Homo sapiens, 24-36 hours at 37° C., 0.1 to 250 μM
pIC50: −log10 of the molar value. Residues, ends and D or L forms follow the SMILES beside them. *: point of attachment. Farnesyl = CC(C)=CCC/C(C)=C/CC/C(C)=C/C*; Boc = CC(C)(C)OC(=O)*; CHN2 = [N-]=[N+]=C*
Param threshold (5) applies to pIC50; output MET when value >= threshold, NOT MET when value < threshold.

Use these answered entries as a reference point.
>  <COMPOUND>
CCCCCCCCCCCCSC[C@H](NC(C)=O)C(=O)N(C)OC

>  <LABEL_VALUE>
NOT MET

$$$$
>  <COMPOUND>
CCCCCCCCCCCCSC[C@H](NC(=O)c1ccccc1)C(=O)CCl

>  <LABEL_VALUE>
MET

$$$$
>  <COMPOUND>
CCCCCCCCCCCCSC[C@H](NC(C)=O)C(=O)CSc1ccccc1

>  <LABEL_VALUE>
NOT MET

$$$$
>  <COMPOUND>
CC(=O)N[C@@H](CSCC=C(C)C)C(=O)C=[N+]=[N-]

>  <LABEL_VALUE>
NOT MET

$$$$
>  <COMPOUND>
CC(C)=CCC/C(C)=C/CC/C(C)=C/CSC[C@H](NC(=O)CNC(=O)OC(C)(C)C)C(=O)C=[N+]=[N-] [HI-401] (Boc-Gly-Cys(Farnesyl)-CHN2)

>  <LABEL_VALUE>
NOT MET

$$$$
>  <COMPOUND>
CC(C)=CCC/C(C)=C/CC/C(C)=C/CSCC(=O)C=[N+]=[N-]

>  <LABEL_VALUE>
NOT MET

$$$$
>  <COMPOUND>
CC(=O)N[C@@H](CSC/C=C(\C)CCC=C(C)C)C(=O)CCl

>  <LABEL_VALUE>
NOT MET

$$$$
>  <COMPOUND>
CC(C)=CCC/C(C)=C/CC/C(C)=C/CSCC(=O)CCl

>  <LABEL_VALUE>
NOT MET

$$$$
>  <COMPOUND>
CC(=O)N[C@@H](CSC/C=C(\C)CC/C=C(\C)CCC=C(C)C)C(=O)CCl

>  <LABEL_VALUE>
MET

$$$$
>  <COMPOUND>
CCCCCCCCCCCCSC[C@H](NC(=O)OC(C)(C)C)C(=O)CCl

>  <LABEL_VALUE>
NOT MET

$$$$

Ask: Check this compound for pIC50 at or above 5: CCCCCCCCCCCCSC[C@H](NC(C)=O)C(=O)CBr
Result: MET

Ask: Check this compound for pIC50 at or above 5: CCCCCCCCCCCCSC[C@H](NC(C)=O)C(=O)CSC(c1ccccc1)(c1ccccc1)c1ccccc1
Result: NOT MET
